# test description: gst-4 reporter inhibition in live C. elegans – whole organism, uHTS, GFP/RFP fluorescence ratio, strain VP596, SKN-1 inhibitor project, primary screen (AID 624304)
# experimental context: C. elegans VP596 Pgst-4::GFP/RFP ratio, acrylamide-induced, 24 h; at 21.8 µM; stronger effect = higher value
The whole screen tested about 360,000 compounds, of which about 1,800 (0.5%) were called active. This is one part of a sample in which actives are shown more often than they occur.
quantity: inhibition (%)
Write down the numeric answer in % and omit the unit.

Worked examples follow.
compound | quantity | measurement units | quantitative result
O=[N+]([O-])c1ccc(N/N=C/c2ccccc2)cc1 | inhibition | % | 41.2
CCc1ccc(C(=O)NC(=S)Nc2ccccc2N2CCOCC2)cc1 | inhibition | % | 11
CC(=O)c1c(C)n([O-])c2ccccc2[n+]1=O | inhibition | % | 36.9

Task: Would you mind telling me what inhibition value was observed for "OCC[C@H]1C[C@H](O)[C@@H](O)[C@]2(CCCCO2)O1" ?
Result: -7.25

Task: Same again, this time with "CCCCN1C[C@H](c2ccc(Br)cc2)[C@@H](CC(=O)Nc2ccc(Br)cc2)C1=O"
Result: 46.8

Task: Same again, this time with "O=C(CCc1ccc(S(=O)(=O)NC2CCCCC2)cc1)NCc1ccccc1"
Result: 3.92

Task: Same again, this time with "COc1ccc(C(=O)NC(=S)Nc2ccccc2N2CCN(S(C)(=O)=O)CC2)cc1OC"
Result: 41

Task: Same again, this time with COc1ccccc1C(=O)N(C1=NC(C)CS1)c1ccc(Cl)cc1 (configuration not stated)
Result: -17.9

# credit: PubChem BioAssay AID624304
